- Tested on: Botrytis cinerea
- Measurement Notes: Vine grey mold (grape berries)
- Assay type: in vivo
- Run Parameters: grape berries treated with 50 ppm, average of six berries, 7-10 days, read-out: % DISEASE CONTROL 50 ppm
Readout Name: pest or weed control at 50 ppm (%)
Numbers only, in %.

Some compounds with recorded pest or weed control at 50 ppm:
Compound	pest or weed control at 50 ppm (%)
CC1CC=C(c2ccccc2NC(=O)c2cn(C)nc2C(F)(F)F)C1 (stereo not drawn)	40
COc1ccc(C2CCCCC2)c(NC(=O)c2cn(C)nc2C(F)(F)F)c1	6
Cn1cc(C(=O)Nc2ccccc2OCC2CCCC2)c(C(F)F)n1	1

Batch: pest or weed control at 50 ppm for all items listed.
1. Cc1c(C(=S)Nc2ccccc2[C@@H]2C[C@H]3CC[C@@H]2C3)c(Cl)nn1C (relative stereo)
2. Cn1cc(C(=O)Nc2ccccc2C2CCC(C(C)(C)C)CC2)c(C(F)F)n1 (stereo not drawn)
3. Cc1ccc(NC(=O)c2cn(C)nc2C(F)F)c(C2CCCCC2)c1
4. Cc1ccc(OC2CCCCC2)c(NC(=O)c2cn(C)nc2C(F)F)c1
5. C=CCn1cc(C(=O)Nc2ccccc2C2CCCCC2)c(C(F)F)n1
6. Cn1cc(C(=O)Nc2ccccc2C2CCCCC2)c(Cl)n1

5
66
37
0
0
8

Batch: pest or weed control at 50 ppm for all items listed.
1. Cn1cc(C(=O)Nc2ccccc2C2CCCC2)c(C(F)(F)F)n1
2. Cn1cc(C(=O)Nc2ccccc2[C@@H]2C[C@H]3CC[C@@H]2C3)c(C(F)(F)Cl)n1 (relative stereo)
3. Cn1cc(C(=O)Nc2ccccc2[C@@H]2C[C@H]3CC[C@@H]2C3)c(Cl)n1 (relative stereo)
4. Cn1cc(C(=O)Nc2ccccc2C2CCCCC2)c(C(F)(F)F)n1

37
0
19
84
